- System: M07e
- TEST: cells
- Design: species or system AML cell lines (8); Secondary HTS, 10-point dose-response in triplicate, Cell Titer Glo viability, four-parameter fit EC50
- SETTINGS: M-07e, 72 h, read-out: M07e
// EC50 lookup, one value per entry

Example cases with answers are listed next.
MOLECULE	EC50
Cc1c(N)nc([C@H](CC(N)=O)NC[C@H](N)C(N)=O)nc1C(=O)N[C@H](C(=O)N[C@H](C)[C@@H](O)[C@H](C)C(=O)N[C@H](C(=O)NCCc1nc(-c2nc(C(=O)NCCC[S+](C)C)cs2)cs1)[C@@H](C)O)[C@@H](OC1OC(CO)C(O)C(O)C1OC1OC(CO)C(O)C(OC(N)=O)C1O)c1cnc[nH]1 (stereo partly drawn) [SJ000804032, BLEOMYCIN]	> 10 µM
CC(C)(C)c1ccc(S(=O)(=O)/C=C/C#N)cc1 [SJ000287676, BAY 11-7085]	3.2 µM
CC(C)(C#N)c1cc(Cn2cncn2)cc(C(C)(C)C#N)c1 [ANASTROZOLE]	> 10 µM
O=C1Nc2ccc(I)cc2/C1=C/c1cc(Br)c(O)c(Br)c1 [SJ000287883, GW 5074]	> 10 µM
COCCn1c2c([n+](Cc3cnccn3)c1C)C(=O)c1ccccc1C2=O [YM-155]	> 10 µM

Then there is this molecule:
Q: State EC50 on M07e. Entry: COc1cc2c(NC3CCN(C)CC3)nc(N3CCCN(C)CC3)nc2cc1OCCCN(C)C [SJ000784262, UNC0224]
Ans: > 10 µM

Origin of measurements: paper PMC6522510
